Cited source for all entries: patent EP0297534B1

Some compounds, each annotated with its measured IC50.
- System name: Lysosomal α-Glucosidase (Rattus norvegicus)
- Construct: Lysosomal α-glucosidase was isolated and partially purified from rat liver
- Test protocol: Lysosomal α-glucosidase inhibition (p-nitrophenyl-α-D-glucoside hydrolysis)
- Measurement parameters: partially purified from rat liver, 1 hour preincubation at 37°C, pH 4.2, read-out: IC₅₀ Lysosomal α-Glucosidase

Worked examples, 5 compounds total:
{"Compound": "OC[C@H]1O[C@H](O[C@H]2[C@H](O)[C@@H](O)CN3CC[C@H](O)[C@H]23)[C@H](O)[C@@H](O)[C@@H]1O [8-α-D-Glucopyranoside]", "Assay value": "300 µM"}
{"Compound": "O=C(O[C@H]1[C@H](O)[C@H]2[C@@H](O)CCN2C[C@@H]1O)c1ccc(Cl)cc1Cl [7-(2,4-Dichlorobenzoate)]", "Assay value": "100 µM"}
{"Compound": "O=C(O[C@H]1[C@H](O)[C@H]2[C@@H](O)CCN2C[C@@H]1OC(=O)c1ccc(F)cc1)c1ccc(F)cc1 [6,7-bis(4-Fluorobenzoate)]", "Assay value": "> 1000 µM"}
{"Compound": "O=C(O[C@H]1[C@H](O)[C@H]2[C@@H](O)CCN2C[C@@H]1OC(=O)c1ccccc1)c1ccccc1 [6,7-Dibenzoate]", "Assay value": "> 1000 µM"}
{"Compound": "O=C(O[C@H]1CN2CC[C@H](O)[C@@H]2[C@@H](O)[C@@H]1O)c1ccccc1 [6-Benzoate]", "Assay value": "800 µM"}

Any idea what its IC50 is? The compound is CCCC(=O)O[C@H]1[C@H](O)[C@@H](OC(=O)CCC)CN2CC[C@H](O)[C@H]12 [6,8-Dibutyrate] > 1000 µM

Any idea what its IC50 is? The compound is Cc1ccc(C(=O)O[C@H]2CN3CC[C@H](O)[C@@H]3[C@@H](O)[C@@H]2O)cc1 [6-(4-Methylbenzoate)] 1000 µM

----------
Some molecules, each annotated with its measured IC50.
- System name: Lysosomal α-Glucosidase (Rattus norvegicus, UniProt Q6P7A9)
- Construct: Lysosomal α-glucosidase was isolated and partially purified from rat liver
- Sequence (Q6P7A9 70-953): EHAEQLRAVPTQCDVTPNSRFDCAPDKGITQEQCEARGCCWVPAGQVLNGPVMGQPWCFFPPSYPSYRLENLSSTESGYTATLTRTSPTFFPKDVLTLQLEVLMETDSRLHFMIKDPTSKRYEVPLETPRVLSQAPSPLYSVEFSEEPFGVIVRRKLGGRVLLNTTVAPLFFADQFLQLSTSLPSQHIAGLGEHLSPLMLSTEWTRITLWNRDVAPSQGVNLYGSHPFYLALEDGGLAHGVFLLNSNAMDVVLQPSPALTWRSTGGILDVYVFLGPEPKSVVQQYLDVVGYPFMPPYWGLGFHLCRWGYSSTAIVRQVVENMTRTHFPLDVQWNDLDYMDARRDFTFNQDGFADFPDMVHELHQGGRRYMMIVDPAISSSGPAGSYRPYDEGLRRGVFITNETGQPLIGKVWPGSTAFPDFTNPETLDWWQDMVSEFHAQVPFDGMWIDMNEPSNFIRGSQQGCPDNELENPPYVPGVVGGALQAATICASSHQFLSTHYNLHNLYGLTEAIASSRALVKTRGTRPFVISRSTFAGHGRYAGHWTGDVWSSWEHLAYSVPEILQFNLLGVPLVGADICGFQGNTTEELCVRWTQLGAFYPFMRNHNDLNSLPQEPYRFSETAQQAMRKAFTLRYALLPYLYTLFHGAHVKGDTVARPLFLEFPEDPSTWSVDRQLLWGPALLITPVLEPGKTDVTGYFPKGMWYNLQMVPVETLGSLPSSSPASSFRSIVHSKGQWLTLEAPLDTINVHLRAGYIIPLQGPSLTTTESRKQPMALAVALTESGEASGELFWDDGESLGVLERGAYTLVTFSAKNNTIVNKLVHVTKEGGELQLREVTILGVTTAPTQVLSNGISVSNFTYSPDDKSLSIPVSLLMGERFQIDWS
- Test protocol: Lysosomal α-glucosidase inhibition (p-nitrophenyl-α-D-glucoside hydrolysis)
- Measurement parameters: partially purified from rat liver, 1 hour preincubation at 37°C, pH 4.2, read-out: IC₅₀ Lysosomal α-Glucosidase
Provide the reading as a plain figure in µM.

{"Molecule": "COc1ccc(C(=O)O[C@H]2CN3CC[C@H](O)[C@@H]3[C@@H](O)[C@@H]2O)cc1 [6-(4-Methoxybenzoate)]", "Parameter measured": "IC50", "Assay value": 1000}
{"Molecule": "O=C(O[C@H]1[C@H](O)[C@H]2[C@@H](O)CCN2C[C@@H]1O)c1ccccc1 [7-Benzoate]", "Parameter measured": "IC50", "Assay value": 200}
{"Molecule": "O=C(O[C@H]1CN2CC[C@H](O)[C@@H]2[C@@H](O)[C@@H]1O)c1ccc(F)cc1 [6-(4-Fluorobenzoate)]", "Parameter measured": "IC50", "Assay value": 4}

Pending molecule:
Any idea what its IC50 is? The molecule is O=C(O[C@H]1[C@H](O)[C@H]2[C@@H](O)CCN2C[C@@H]1O)c1ccc(F)cc1 [7-(4-Fluorobenzoate)] 6

----------
- System name: Intestinal Sucrase (Rattus norvegicus)
- Construct: Sucrase was isolated from rat intestine as a crude homogenate; from tissue; host or cells: rat intestine
- Sequence (P23739 whole entry): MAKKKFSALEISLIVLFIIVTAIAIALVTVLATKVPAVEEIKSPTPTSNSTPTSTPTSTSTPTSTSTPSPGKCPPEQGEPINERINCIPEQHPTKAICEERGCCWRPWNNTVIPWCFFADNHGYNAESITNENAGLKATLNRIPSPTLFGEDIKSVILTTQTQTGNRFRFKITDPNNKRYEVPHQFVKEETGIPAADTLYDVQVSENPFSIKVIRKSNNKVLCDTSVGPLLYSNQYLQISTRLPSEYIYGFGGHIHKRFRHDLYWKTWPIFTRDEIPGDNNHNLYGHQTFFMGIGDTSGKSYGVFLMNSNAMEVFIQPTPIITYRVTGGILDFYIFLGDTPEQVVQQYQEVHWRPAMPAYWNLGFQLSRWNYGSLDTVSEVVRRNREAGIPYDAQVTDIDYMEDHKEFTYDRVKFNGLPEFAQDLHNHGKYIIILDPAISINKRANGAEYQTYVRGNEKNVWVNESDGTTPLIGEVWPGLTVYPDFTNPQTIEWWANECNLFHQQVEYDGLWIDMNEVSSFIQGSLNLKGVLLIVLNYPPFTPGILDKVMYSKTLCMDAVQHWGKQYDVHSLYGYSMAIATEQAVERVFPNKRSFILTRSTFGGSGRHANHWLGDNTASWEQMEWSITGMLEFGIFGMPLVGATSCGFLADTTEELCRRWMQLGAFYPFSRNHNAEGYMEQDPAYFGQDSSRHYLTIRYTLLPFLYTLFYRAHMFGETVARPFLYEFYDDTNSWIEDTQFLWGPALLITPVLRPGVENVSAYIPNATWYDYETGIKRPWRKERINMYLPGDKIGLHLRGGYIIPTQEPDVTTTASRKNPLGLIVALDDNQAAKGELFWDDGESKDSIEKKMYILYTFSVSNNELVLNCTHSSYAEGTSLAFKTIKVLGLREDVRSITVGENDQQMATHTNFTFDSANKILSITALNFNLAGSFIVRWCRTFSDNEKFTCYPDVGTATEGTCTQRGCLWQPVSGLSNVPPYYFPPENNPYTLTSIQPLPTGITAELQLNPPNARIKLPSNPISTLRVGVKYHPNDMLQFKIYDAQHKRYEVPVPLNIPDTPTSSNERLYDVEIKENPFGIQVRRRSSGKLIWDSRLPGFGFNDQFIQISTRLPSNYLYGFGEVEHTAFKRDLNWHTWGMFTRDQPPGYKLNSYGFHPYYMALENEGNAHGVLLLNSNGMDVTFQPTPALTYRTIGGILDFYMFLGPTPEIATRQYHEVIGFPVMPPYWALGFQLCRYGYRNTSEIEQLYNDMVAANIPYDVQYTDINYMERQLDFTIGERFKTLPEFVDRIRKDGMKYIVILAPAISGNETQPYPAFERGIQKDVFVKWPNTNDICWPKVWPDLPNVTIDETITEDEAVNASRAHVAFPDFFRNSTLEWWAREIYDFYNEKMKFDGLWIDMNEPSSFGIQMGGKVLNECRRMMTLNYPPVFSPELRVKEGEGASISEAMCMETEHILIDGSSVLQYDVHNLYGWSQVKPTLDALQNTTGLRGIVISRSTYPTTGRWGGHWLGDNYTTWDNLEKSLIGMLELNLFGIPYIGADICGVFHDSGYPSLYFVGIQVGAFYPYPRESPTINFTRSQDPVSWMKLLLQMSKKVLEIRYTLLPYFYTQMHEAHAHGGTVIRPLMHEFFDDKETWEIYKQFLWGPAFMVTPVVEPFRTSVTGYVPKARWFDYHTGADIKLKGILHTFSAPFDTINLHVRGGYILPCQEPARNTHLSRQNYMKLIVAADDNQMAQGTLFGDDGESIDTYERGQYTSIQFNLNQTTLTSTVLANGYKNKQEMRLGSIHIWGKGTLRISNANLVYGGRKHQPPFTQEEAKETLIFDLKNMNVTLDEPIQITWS
- Test protocol: Intestinal sucrase inhibition (glucose liberated from sucrose)
- Format: biochemical
- Measurement parameters: crude homogenate from rat intestine; 1 hour preincubation with test compound; sucrose substrate, pH 5.9; read-out: IC₅₀ Intestinal Sucrase
Some molecules, each annotated with its measured pIC50.
Please report pIC50 as the negative decimal logarithm of the molar concentration, giving only the number.

Worked examples, 4 molecules total:
{"Molecule": "OC[C@H]1O[C@H](O[C@H]2[C@H](O)[C@@H](O)CN3CC[C@H](O)[C@H]23)[C@H](O)[C@@H](O)[C@@H]1O [8-α-D-Glucopyranoside]", "pIC50": 7.30}
{"Molecule": "CCCC(=O)O[C@H]1[C@H](O)[C@@H](OC(=O)CCC)CN2CC[C@H](O)[C@H]12 [6,8-Dibutyrate]", "pIC50": 6.70}
{"Molecule": "O=C(O[C@H]1[C@H](O)[C@H]2[C@@H](O)CCN2C[C@@H]1O)c1ccc(Cl)cc1Cl [7-(2,4-Dichlorobenzoate)]", "pIC50": 6.40}
{"Molecule": "O=C(O[C@H]1[C@H](O)[C@H]2[C@@H](O)CCN2C[C@@H]1O)c1ccccc1 [7-Benzoate]", "pIC50": 5.70}

Which measured pIC50 belongs to O=C(O[C@H]1[C@H](O)[C@H]2[C@@H](O)CCN2C[C@@H]1OC(=O)c1ccc(F)cc1)c1ccc(F)cc1 [6,7-bis(4-Fluorobenzoate)] , tested on Intestinal Sucrase (Rattus norvegicus)? 5.40

Which measured pIC50 belongs to Cc1ccc(C(=O)O[C@H]2CN3CC[C@H](O)[C@@H]3[C@@H](O)[C@@H]2O)cc1 [6-(4-Methylbenzoate)] , tested on Intestinal Sucrase (Rattus norvegicus)? 6.52

Which measured pIC50 belongs to COc1ccc(C(=O)O[C@H]2CN3CC[C@H](O)[C@@H]3[C@@H](O)[C@@H]2O)cc1 [6-(4-Methoxybenzoate)] , tested on Intestinal Sucrase (Rattus norvegicus)? 5.70

----------
Some molecules, each annotated with its measured pIC50.
- System name: Intestinal Sucrase (Rattus norvegicus)
- Construct: Sucrase was isolated from rat intestine as a crude homogenate
- Test protocol: Intestinal sucrase inhibition (glucose liberated from sucrose)
- Measurement parameters: crude homogenate from rat intestine; 1 hour preincubation with test compound; sucrose substrate, pH 5.9; read-out: IC₅₀ Intestinal Sucrase
Please report pIC50 as the negative decimal logarithm of the molar concentration, giving only the number.

{"Molecule": "O=C(O[C@H]1CN2CC[C@H](O)[C@@H]2[C@@H](O)[C@@H]1O)c1ccccc1 [6-Benzoate]", "Assay value": 7.10}

Any idea what its pIC50 is? The molecule is O=C(O[C@H]1[C@H](O)[C@H]2[C@@H](O)CCN2C[C@@H]1O)c1ccc(F)cc1 [7-(4-Fluorobenzoate)] 6.40

Any idea what its pIC50 is? The molecule is O=C(O[C@H]1CN2CC[C@H](O)[C@@H]2[C@@H](O)[C@@H]1O)c1ccc(F)cc1 [6-(4-Fluorobenzoate)] 6.70

Any idea what its pIC50 is? The molecule is O=C(O[C@H]1[C@H](O)[C@H]2[C@@H](O)CCN2C[C@@H]1OC(=O)c1ccccc1)c1ccccc1 [6,7-Dibenzoate] 5.70
